The measured values listed here are drawn from the supplement of paper PMC9233669.

- Tested on: biotinyl-Met-oxazolone
- ASSAY NAME: self-aminoacylation, catalytic enhancement (BMO) (fold over background); higher = more active; k-Seq, kA / k0A0; sequences stand for … in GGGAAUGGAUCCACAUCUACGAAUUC…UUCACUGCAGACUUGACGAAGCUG
Fewer inactive variants are shown than the library holds.
Reported self-aminoacylation by item:
Lab note: write the figure by itself, no unit.

Value lookup for self-aminoacylation; key = CCACACUUCACGCUAUCGGUC [Fam1B.1 aminoacylation ribozyme variant]
1.03

State the recorded self-aminoacylation for this entry: CUACUUCAAAUAAUCGGCCUG [Fam1A.1 aminoacylation ribozyme variant]
0.902

###

- Tested on: biotinyl-Val-oxazolone
- ASSAY NAME: self-aminoacylation, catalytic enhancement (BVO) (fold over background); higher = more active; k-Seq, kA / k0A0; sequences stand for … in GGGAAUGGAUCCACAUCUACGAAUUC…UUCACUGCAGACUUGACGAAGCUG
Variants at the floor of the assay were thinned out.
Catalogue of self-aminoacylation values
// print number alone

Worked set:
INSERT INTO measurements (query_sequence, reported_result) VALUES
  ('CCACACGUCAAGCAAUCGAUC [Fam1B.1 aminoacylation ribozyme variant]', 0.921),
  ('CCACACUUCCAGCAAUCGGGC [Fam1B.1 aminoacylation ribozyme variant]', 2.32),
  ('CCACGCUUCAAGCGAUCGGUC [Fam1B.1 aminoacylation ribozyme variant]', 1.2);

Name the reported self-aminoacylation value associated with the sequence AAGUUUGCUAAAGGUCGCAAG [Fam3.1 aminoacylation ribozyme variant]
0.625

Form field: reported self-aminoacylation of CUACUUCAAAAAAGCGGUCUG [Fam1A.1 aminoacylation ribozyme variant]
0.801

Would you mind telling me what self-aminoacylation value was observed for CCUCACUUCAAACAAUCGGUC [Fam1B.1 aminoacylation ribozyme variant] ?
1.25

For AUUACCCUGCUCAACGAGUGA [Fam2.1 aminoacylation ribozyme variant] , what is its reported self-aminoacylation?
3.25

Query (sequence): AUUACCCUGGUCAGCGAAUGA [Fam2.1 aminoacylation ribozyme variant] ; field requested: self-aminoacylation
1.31

###

- System: biotinyl-Leu-oxazolone
- ASSAY NAME: self-aminoacylation, catalytic enhancement (BLO) (fold over background); higher = more active; k-Seq, kA / k0A0; sequences stand for … in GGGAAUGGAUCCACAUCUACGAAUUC…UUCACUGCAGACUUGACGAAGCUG
Fewer inactive variants are shown than the library holds.
PROPERTY MEASURED: self-aminoacylation
Returns: the value as a bare number; no unit string appended.

INSERT INTO results (query_sequence, reported_result) VALUES
  ('AGUCACCUAGGUCAUCUGGUG [Fam2.2 aminoacylation ribozyme variant]', 2.59);

Okay, next one:
Entry under review: CCACACUUUAAGCAUUCGGUC [Fam1B.1 aminoacylation ribozyme variant] . Reported self-aminoacylation?
1.21

###

- System: biotinyl-Phe-oxazolone
- ASSAY NAME: self-aminoacylation, catalytic enhancement (BFO) (fold over background); higher = more active; k-Seq, kA / k0A0; sequences stand for … in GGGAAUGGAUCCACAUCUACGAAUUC…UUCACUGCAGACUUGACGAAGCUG
This sample holds only a part of the variants without activity.
Is self-aminoacylation at least 3? Then criterion met. If not, criterion not met.

INSERT INTO measurements (query_sequence, class) VALUES
  ('AUUAACCUGCUCAUCGAGUGA [Fam2.1 aminoacylation ribozyme variant]', 'criterion not met'),
  ('CCUCCCUUCAAGCAAUCGGUC [Fam1B.1 aminoacylation ribozyme variant]', 'criterion met'),
  ('CAACGCUUCAAGCAAUCGGUC [Fam1B.1 aminoacylation ribozyme variant]', 'criterion met'),
  ('AUUGCCCUGGUCAUCGAGAGA [Fam2.1 aminoacylation ribozyme variant]', 'criterion not met'),
  ('AUAACCCUGGUCAGCGAGUGA [Fam2.1 aminoacylation ribozyme variant]', 'criterion met'),
  ('AUUACGCUGGUUAUCGAGUGA [Fam2.1 aminoacylation ribozyme variant]', 'criterion met'),
  ('AGGGUUGCUAAUAGUCGCAAG [Fam3.1 aminoacylation ribozyme variant]', 'criterion met'),
  ('ACUCACCUUGGUCAUCGGGUG [Fam2.2 aminoacylation ribozyme variant]', 'criterion met'),
  ('CUACUGAAAACAAUCGGUCUG [Fam1A.1 aminoacylation ribozyme variant]', 'criterion not met'),
  ('CUACUUCAAACAUUUGGUCUG [Fam1A.1 aminoacylation ribozyme variant]', 'criterion not met');

Check the entry CCACACUUCAAGCAGUCGGUG [Fam1B.1 aminoacylation ribozyme variant] : does self-aminoacylation equal or exceed 3?
criterion met

Dear colleague, could you confirm whether AUUACCAUGGUCAUCGAGAGA [Fam2.1 aminoacylation ribozyme variant] has self-aminoacylation at or above 3?
criterion not met

Hi team, for CCACGCUCCAAGCAAUCGGUC [Fam1B.1 aminoacylation ribozyme variant] , is the recorded self-aminoacylation at or above 3?
criterion met

###

- System: biotinyl-Leu-oxazolone
- ASSAY NAME: self-aminoacylation, catalytic enhancement (BLO) (fold over background); higher = more active; k-Seq, kA / k0A0; sequences stand for … in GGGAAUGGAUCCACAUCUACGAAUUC…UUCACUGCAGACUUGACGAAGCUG
Fewer inactive variants are shown than the library holds.
PROPERTY MEASURED: self-aminoacylation
Lab note: write the figure by itself, no unit.

Examples with their reported self-aminoacylation follow.
INSERT INTO results (query_sequence, reported_result) VALUES
  ('CUACUUCUAACAAUCGGACUG [Fam1A.1 aminoacylation ribozyme variant]', 0.495),
  ('AUUCACCUAGGUCAUCGGUUG [Fam2.2 aminoacylation ribozyme variant]', 1.11),
  ('AAGUUUCCUAGUAGUCGCAAG [Fam3.1 aminoacylation ribozyme variant]', 1.06),
  ('AUUAACCUAGGGCAUCGGGUG [Fam2.2 aminoacylation ribozyme variant]', 3.09),
  ('UCACACUUCAAGCUAUCGGUC [Fam1B.1 aminoacylation ribozyme variant]', 0.749),
  ('CCACACUACAAGCGAUCGGUC [Fam1B.1 aminoacylation ribozyme variant]', 1.24),
  ('CUAUUUGAAACAAUCGGUCUG [Fam1A.1 aminoacylation ribozyme variant]', 0.779),
  ('AUUUCCCUCGUCAUCGAGUGA [Fam2.1 aminoacylation ribozyme variant]', 3.93);

Okay, now this sequence:
Record request: self-aminoacylation value, item AUUACCCUGGUCAUCGCAUGA [Fam2.1 aminoacylation ribozyme variant]
3.5

###

- System: biotinyl-Val-oxazolone
- ASSAY NAME: self-aminoacylation, catalytic enhancement (BVO) (fold over background); higher = more active; k-Seq, kA / k0A0; sequences stand for … in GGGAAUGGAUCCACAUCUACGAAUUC…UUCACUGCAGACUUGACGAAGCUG
This sample holds only a part of the variants without activity.
Respond with Satisfied for self-aminoacylation values of 1 and above, Not satisfied for values below.

INSERT INTO assay_data (query_sequence, class) VALUES
  ('AAGUUUGUUAAUAGGCGCAAG [Fam3.1 aminoacylation ribozyme variant]', 'Not satisfied'),
  ('AUUCAACUAUGUCAUCGGGUG [Fam2.2 aminoacylation ribozyme variant]', 'Satisfied'),
  ('CUAUUUCAAAGAAUCGGUCUG [Fam1A.1 aminoacylation ribozyme variant]', 'Not satisfied');

Decide: is the reported value of self-aminoacylation for CUACGUCAAACAGUCGGUCUG [Fam1A.1 aminoacylation ribozyme variant] equal to or greater than 1?
Satisfied

Record CUACUUCAAACAAUCGUUCUA [Fam1A.1 aminoacylation ribozyme variant] ; criterion: self-aminoacylation no lower than 1. Met?
Not satisfied

Check if self-aminoacylation >= 1 (inclusive). Item: AAUUUUGCUAUUAGUCGCAAG [Fam3.1 aminoacylation ribozyme variant]
Satisfied

Given CCACGCUUCAAGCAAUCCGUC [Fam1B.1 aminoacylation ribozyme variant] , state whether its self-aminoacylation is at least 1.
Satisfied

# check: self-aminoacylation of AUUACCCUGGUCACCAAGUGA [Fam2.1 aminoacylation ribozyme variant] is greater than or equal to 1
Satisfied

Identify whether the reported self-aminoacylation of the following sequence is 1 or greater: AGGUUUGCUAAUAGUAGCAAG [Fam3.1 aminoacylation ribozyme variant]
Satisfied

Is self-aminoacylation at least 1? Consider AAGCUAGCUAAUAGUCGCAAG [Fam3.1 aminoacylation ribozyme variant]
Satisfied

Tell me whether self-aminoacylation is at least 1 here: AUUCACCUAGGGCAUCAGGUG [Fam2.2 aminoacylation ribozyme variant]
Satisfied

State whether the measured self-aminoacylation reaches 1, counting equality as reaching it, for AGUACCCUGGUCACCGAGUGA [Fam2.1 aminoacylation ribozyme variant]
Satisfied

Assess whether reported self-aminoacylation for AUGACCCUGGUCAUCGAGUGU [Fam2.1 aminoacylation ribozyme variant] sits at 1 or higher.
Satisfied

Is the recorded value of self-aminoacylation equal to or greater than 1 for this sequence? CCACACUUCAAGCAAUCCGUA [Fam1B.1 aminoacylation ribozyme variant]
Satisfied

Please indicate if the recorded self-aminoacylation for AUUACCCUUGUCAUCGAGUGG [Fam2.1 aminoacylation ribozyme variant] meets or exceeds 1.
Satisfied

Does AUGACACUGGUCAUCGAGUGA [Fam2.1 aminoacylation ribozyme variant] have a reported self-aminoacylation of at least 1?
Satisfied

Record CCACACUUGAAGCAAUCGUUC [Fam1B.1 aminoacylation ribozyme variant] ; criterion: self-aminoacylation no lower than 1. Met?
Not satisfied
